This section presents molecules with their documented gametocyte viability values.
Test system: Plasmodium falciparum NF54/iGP1_RE9H ulg8 stage V gametocytes
ASSAY_COMMENT: gametocyte viability (luciferase signal relative to DMSO control) (% of DMSO control); higher = less gametocytocidal activity, active = 50 or less
CONDITION: concentration: 1 µM; exposure time: 72 h
Structures can show the parent of a compound that is named as a salt. The whole screen tested about 1,300 compounds, of which about 40 (3%) showed activity. The sample as a whole holds a higher share of actives than the screen did.
No unit in the answer, only the number.

Here is how some molecules turned out for gametocyte viability.
{"columns": ["MOLECULE", "STUDY_SYSTEM", "gametocyte viability"],
 "data": [
  ["CN(C)[C@@H]1C(=O)C(C(=O)NCNCCCC[C@H](N)C(=O)O)=C(O)[C@@]2(O)C(=O)C3=C(O)c4c(O)cccc4[C@@](C)(O)[C@H]3C[C@@H]12 [Lymecycline]", "Plasmodium falciparum NF54/iGP1_RE9H ulg8 stage V gametocytes", 88.7],
  ["O=C(O)c1ccccc1C(=O)Nc1ccc(S(=O)(=O)Nc2nccs2)cc1 [Phthalylsulfathiazole]", "Plasmodium falciparum NF54/iGP1_RE9H ulg8 stage V gametocytes", 82.3],
  ["Nc1nc(CC(=O)Nc2ccc(CCNC[C@H](O)c3ccccc3)cc2)cs1 [Mirabegron]", "Plasmodium falciparum NF54/iGP1_RE9H ulg8 stage V gametocytes", 91.9]
]}

Then there is this molecule:
// recorded gametocyte viability for NC1CCN(c2nc3c(cc2F)c(=O)c(C(=O)O)cn3-c2ccc(F)cc2F)C1 (centres undefined) [Tosufloxacin hydrochloride] : 78.5

###

Test system: Plasmodium falciparum NF54/iGP1_RE9H ulg8 stage V gametocytes
ASSAY_COMMENT: gametocyte viability (luciferase signal relative to DMSO control) (% of DMSO control); higher = less gametocytocidal activity, active = 50 or less
CONDITION: concentration: 1 µM; exposure time: 72 h
Counter-ions that a name gives are not always drawn. Out of some 1,300 compounds screened, about 40 (3%) showed activity. This excerpt belongs to a sample that is enriched for actives.
ENDPOINT_NAME: gametocyte viability
No unit in the answer, only the number.

Here is how some molecules turned out for gametocyte viability.
{"columns": ["MOLECULE", "gametocyte viability"],
 "data": [
  ["COc1cc2ncnc(Nc3ccc(F)c(Cl)c3)c2cc1OCCCN1CCOCC1", 95.8],
  ["CO[C@@]1(NC(=O)Cc2cccs2)C(=O)N2C(C(=O)O)=C(COC(N)=O)CS[C@@H]21 [Cefoxitin sodium salt]", 85.9],
  ["C#Cc1cccc(Nc2ncnc3cc(OCCOC)c(OCCOC)cc23)c1", 70.7],
  ["O=C1C(=O)c2ccccc2C(O)=C1C1CCC(c2ccc(Cl)cc2)CC1 (centres undefined)", 91.4],
  ["COC1=CC(=O)C[C@@H](C)[C@]12Oc1c(Cl)c(OC)cc(OC)c1C2=O", 89.3]
]}

// recorded gametocyte viability for Cc1c(-c2ccccc2)oc2c(C(=O)OCCN3CCCCC3)cccc2c1=O [Flavoxate hydrochloride] : 92

// recorded gametocyte viability for `NNC(=O)c1ccncc1` : 80.8

// recorded gametocyte viability for COCCCOc1ccnc(C[S+]([O-])c2nc3ccccc3[nH]2)c1C (centres undefined) [Rabeprazole Sodium salt] : 83.8

// recorded gametocyte viability for `COC1=C(OC)C(=O)C(CCCCCCCCCCO)=C(C)C1=O` : 88

###

System: Plasmodium falciparum NF54/iGP1_RE9H ulg8 stage V gametocytes
ASSAY_COMMENT: gametocyte viability (luciferase signal relative to DMSO control) (% of DMSO control); higher = less gametocytocidal activity, active = 50 or less
CONDITION: concentration: 10 µM; exposure time: 72 h
Counter-ions that a name gives are not always drawn. Hit rate of the full screen: of about 1,300 compounds, about 40 (3%) showed activity. The entries come from a sample that favours actives as a whole.
This section presents compounds with their documented gametocyte viability values.
No unit in the answer, only the number.

{"columns": ["COMPOUND", "gametocyte viability"],
 "data": [
  ["C=CC(N)CCC(=O)O (stereo not given)", 90.6],
  ["COCCc1ccc(OCC(O)CNC(C)C)cc1 (racemic) [Metoprolol-(+,-) (+)-tartrate salt]", 94],
  ["CC1=C(CC(=O)O)c2cc(F)ccc2/C1=C\\c1ccc([S+](C)[O-])cc1 (stereo not given)", 82.7]
]}

// recorded gametocyte viability for CN(N=O)C(=O)N[C@H]1C(O)O[C@H](CO)[C@@H](O)[C@@H]1O (mixture of isomers) : 92.1

// recorded gametocyte viability for `CC(=O)Oc1cc(C(F)(F)F)ccc1C(=O)O` : 87.1

// recorded gametocyte viability for `OC(Cn1cncn1)(Cn1cncn1)c1ccc(F)cc1F` : 86.9

// recorded gametocyte viability for NC(=O)C(c1ccccc1)(c1ccccc1)[C@@H]1CCN(CCc2ccc3c(c2)CCO3)C1 [Darifenacin hydrobromide] : 84.2

// recorded gametocyte viability for CCCCNc1c(C(=O)OCC)c(C)nc2c1cnn2CC [Tracazolate hydrochloride] : 76.3

// recorded gametocyte viability for CC(C)NC[C@@H](O)COc1cccc2ccccc12 [(R)-Propranolol hydrochloride] : 89

// recorded gametocyte viability for `CC(C)(C#N)c1cc(Cn2cncn2)cc(C(C)(C)C#N)c1` : 45.8

###

This section presents compounds with their documented gametocyte viability values.
Test system: Plasmodium falciparum NF54/iGP1_RE9H ulg8 stage V gametocytes
ASSAY_COMMENT: gametocyte viability (luciferase signal relative to DMSO control) (% of DMSO control); higher = less gametocytocidal activity, active = 50 or less
CONDITION: concentration: 1 µM; exposure time: 72 h
Structures can show the parent of a compound that is named as a salt. About 40 (3%) of roughly 1,300 compounds showed activity. The list comes from a sample in which actives are over-represented; it also holds close analogues and randomly drawn compounds.

Here is how some compounds turned out for gametocyte viability.
{"columns": ["COMPOUND", "gametocyte viability"],
 "data": [
  ["CN1CCC(=C2c3ccccc3CCc3cccnc32)CC1 [Azatadine maleate]", "79.7 (inactive)"],
  ["CC(=O)OCC(=O)[C@@]1(O)CC[C@H]2[C@@H]3CCC4=CC(=O)CC[C@]4(C)[C@@]3(F)[C@@H](O)C[C@@]21C [Fludrocortisone acetate]", "79.5 (inactive)"],
  ["O=c1[nH]c(=O)n(C2CCCO2)cc1F (stereo not drawn) [Tegafur]", "82.6 (inactive)"],
  ["CC(=O)OC[C@H]1O[C@@H]([S-])[C@H](OC(C)=O)[C@@H](OC(C)=O)[C@@H]1OC(C)=O.CCP(CC)CC.[Au+] [Auranofin]", "82.6 (inactive)"],
  ["C=CC1=C(C(=O)O)N2C(=O)[C@@H](NC(=O)/C(=N\\O)c3csc(N)n3)[C@H]2SC1 [Cefdinir]", "80.8 (inactive)"]
]}

Item CN(Cc1cnc2nc(N)nc(N)c2n1)c1ccc(C(=O)N[C@@H](CCC(=O)O)C(=O)O)cc1 [Methotrexate] was tested on Plasmodium falciparum NF54/iGP1_RE9H ulg8 stage V gametocytes; the reported gametocyte viability is 91.4 (inactive)

Item OCCN(CCO)c1nc(N2CCCCC2)c2nc(N(CCO)CCO)nc(N3CCCCC3)c2n1 [Dipyridamole] was tested on Plasmodium falciparum NF54/iGP1_RE9H ulg8 stage V gametocytes; the reported gametocyte viability is 64.1 (inactive)

Item CCCCC(=O)N(Cc1ccc(-c2ccccc2-c2nnn[nH]2)cc1)[C@H](C(=O)O)C(C)C [Valsartan] was tested on Plasmodium falciparum NF54/iGP1_RE9H ulg8 stage V gametocytes; the reported gametocyte viability is 81.5 (inactive)

###

This section presents compounds with their documented gametocyte viability values.
System: Plasmodium falciparum NF54/iGP1_RE9H ulg8 stage V gametocytes
ASSAY_COMMENT: gametocyte viability (luciferase signal relative to DMSO control) (% of DMSO control); higher = less gametocytocidal activity, active = 50 or less
CONDITION: concentration: 1 µM; exposure time: 72 h
Structures can show the parent of a compound that is named as a salt. In all, about 1,300 compounds went through this assay and about 40 (3%) showed activity. Many of the other results were omitted from the sample, so actives are more common in it than they were.
No unit in the answer, only the number.

{"columns": ["COMPOUND", "ENDPOINT_NAME", "OBSERVED"],
 "data": [
  ["OC(Cn1cncn1)(Cn1cncn1)c1ccc(F)cc1F", "gametocyte viability", 83.4]
]}

// recorded gametocyte viability for CN1CCN2c3ncccc3Cc3ccccc3C2C1 (configuration not stated) : 79.6

// recorded gametocyte viability for Clc1ccc2nsnc2c1NC1=NCCN1 [Tizanidine HCl] : 93.4

// recorded gametocyte viability for Cc1c(C)c2c(c(C)c1O)CCC(C)(C(=O)O)O2 (configuration not stated) : 88.2

// recorded gametocyte viability for Nc1c2c(nc3ccccc13)CCCC2O (racemic) [Hydroxytacrine maleate (R,S)] : 101

// recorded gametocyte viability for COc1cc(N)c(Cl)cc1C(=O)NC1CCN(CCCOc2ccc(F)cc2)CC1OC (configuration not stated) [Cisapride] : 95.9

Every entry's value here was drawn from the supplement of paper PMC12297408.
